Would you mind telling me the reported selectivity ratio of each entry?
- method: Selectivity index, ratio of IC50 for cytotoxicity against bovine MDBK cells to IC50 for Trypanocidal activity against Trypanosoma brucei brucei
- conditions_used: cattle

COc1cccc(-c2ncc(-c3ccccc3N(C)C)o2)c1OC has a reported selectivity ratio of > 15

COc1cccc(-c2ncc(-c3ccccc3[N+](=O)[O-])o2)c1OC has a reported selectivity ratio of > 6.2

COc1ccccc1-c1nnc(-c2cccc(OC)c2OC)s1 has a reported selectivity ratio of > 10

----------
- Tested on: Trypanosoma brucei brucei
- method: Trypanocidal activity against Trypanosoma brucei brucei assessed as reduction in intracellular ATP production incubated for 72 hrs by CellTiter-Glo luminescent cell viability assay
- Assay type: functional, organism-based
assay_endpoint: log10 IC50 (log10 of the value in µM)
The base-10 logarithm of IC50, taken with IC50 in µM, is what appears here.

COc1ccccc1-c1nnc(-c2cccc(OC)c2OC)s1 has a reported log10 IC50 of 1.47

COc1cccc(-c2ncc(-c3c(OC)cccc3OC)o2)c1OC has a reported log10 IC50 of 1.50

CC1CS(=O)(=O)CCN1/N=C/c1ccc([N+](=O)[O-])o1 (configuration not stated) has a reported log10 IC50 of 0.67

Oc1ccccc1-c1cnc(-c2cccc(O)c2O)s1 has a reported log10 IC50 of 0.89

COc1cccc(-c2ncc(-c3ccccc3C)o2)c1OC has a reported log10 IC50 of 1.59

Oc1ccc(O)c(-c2cnc(-c3cc(O)ccc3O)o2)c1 has a reported log10 IC50 of 1.74

Oc1ccccc1-c1coc(-c2cccc(O)c2O)n1 has a reported log10 IC50 of 0.11

Cc1ccc(C(=O)Nc2ccc(S(=O)(=O)O)c3cc(S(=O)(=O)O)cc(S(=O)(=O)O)c23)cc1NC(=O)c1cccc(NC(=O)Nc2cccc(C(=O)Nc3cc(C(=O)Nc4ccc(S(=O)(=O)O)c5cc(S(=O)(=O)O)cc(S(=O)(=O)O)c45)ccc3C)c2)c1 has a reported log10 IC50 of -1.18

Oc1ccc(O)c(-c2cnc(-c3ccccc3)o2)c1 has a reported log10 IC50 of 1.31

COc1ccccc1-c1cnc(-c2cccc(OC)c2OC)s1 has a reported log10 IC50 of 1.51

COc1ccc(-c2cnc(-c3cccc(OC)c3OC)o2)c(OC)c1 has a reported log10 IC50 of 1.55

COc1ccccc1-c1cnc(-c2c(OC)cccc2OC)o1 has a reported log10 IC50 of 1.29

COc1cccc(-c2cnc(-c3cccc(OC)c3)o2)c1 has a reported log10 IC50 of 1.79

COc1cccc(-c2ncc(-c3ccc(OC)c(OC)c3OC)o2)c1OC has a reported log10 IC50 of 1.81

COc1cccc(-c2cnc(-c3cccc(OC)c3OC)o2)c1OC has a reported log10 IC50 of 1.85

COc1cccc(-c2ncc(-c3ccccc3N)o2)c1OC has a reported log10 IC50 of 1.78

COc1ccccc1-c1coc(-c2cccc(OC)c2OC)n1 has a reported log10 IC50 of 1.58

CC(=O)Oc1ccc(OC(C)=O)c(-c2ncc(-c3ccccc3OC(C)=O)o2)c1 has a reported log10 IC50 of 1.53

Oc1ccccc1-c1nnc(-c2cccc(O)c2O)s1 has a reported log10 IC50 of 0.59

COc1cccc(-c2ncc(-c3ccccc3)o2)c1OC has a reported log10 IC50 of 1.94
